Source listed as the supplement of paper PMC11061612.

tested on: Hs-766T (Pancreatic Carcinoma); assay: combination Emax (second highest fraction inhibited in the dose matrix, 72 h); higher = more inhibition; extreme values may be limits of the assay
Label rule, in plain words: combination Emax of 0.4 and up is TRUE, under 0.4 is FALSE.

# compound, label.value
records = [
    ("NC1(C(=O)N[C@@H](CCO)c2ccc(Cl)cc2)CCN(c2ncnc3[nH]ccc23)CC1 [Capivasertib] + CC(=O)c1c(C)c2cnc(Nc3ccc(N4CCNCC4)cn3)nc2n(C2CCCC2)c1=O [Palbociclib] (first compound max 10 µM, 7x7, partner max 10 µM)", "FALSE"),
    ("C[C@@H](Nc1cc(F)cc(F)c1)c1cc(C(=O)N(C)C)cc2c(=O)cc(N3CCOCC3)oc12 [AZD8186] + C1CN(CCC1(C(=O)N[C@@H](CCO)C2=CC=C(C=C2)Cl)N)C3=NC=NC4=C3C=CN4 [AZD5363] (first compound max 10 µM, 7x7, partner max 10 µM)", "FALSE"),
    ("COc1cc2ncnc(Nc3ccc(F)c(Cl)c3)c2cc1OCCCN1CCOCC1 [Gefitinib] + CC(C)n1c(=O)n(C)c2cnc3cc(F)c(-c4ccc(OCCCN5CCCCC5)nc4)cc3c21 [AZD1390] (first compound max 10 µM, 7x7, partner max 0.3 µM)", "FALSE"),
    ("COc1cccc(OCCCN)c1-c1cc(Nc2cnc(C#N)cn2)n[nH]1 [Prexasertib] + C[C@@H]1COCCN1C2=NC(=NC(=C2)C3(CC3)[S@](=N)(=O)C)C4=C5C=CNC5=NC=C4 [AZD6738] (first compound max 1 µM, 7x7, partner max 10 µM)", "TRUE"),
    ("NC1(C(=O)N[C@@H](CCO)c2ccc(Cl)cc2)CCN(c2ncnc3[nH]ccc23)CC1 [Capivasertib] + COc1nnc2ccc(N3CCC(c4ccc(OCCN5CCN(C)C(=O)[C@H]5C)cc4)CC3)nn12 [AZD5153] (first compound max 10 µM, 7x7, partner max 1 µM)", "TRUE"),
]

Data request: Check the entry CC(=O)c1c(C)c2cnc(Nc3ccc(N4CCNCC4)cn3)nc2n(C2CCCC2)c1=O [Palbociclib] + Cn1cnc2c(F)c(Nc3ccc(Br)cc3Cl)c(C(=O)NOCCO)cc21 [Selumetinib] (first compound max 10 µM, 7x7, partner max 10 µM) : does combination Emax equal or exceed 0.4?
Data returned: TRUE

Data request: Check the entry NC1(C(=O)N[C@@H](CCO)c2ccc(Cl)cc2)CCN(c2ncnc3[nH]ccc23)CC1 [Capivasertib] + C[C@@H]1COCCN1C2=NC(=NC(=C2)C3(CC3)[S@](=N)(=O)C)C4=C5C=CNC5=NC=C4 [AZD6738] (first compound max 10 µM, 7x7, partner max 10 µM) : does combination Emax equal or exceed 0.4?
Data returned: TRUE

Data request: Check the entry Cc1c2c(nn1C)CSCc1cc(n(C)n1)CSc1cc(c3ccccc3c1)OCCCc1c(C(=O)O)n(C)c3c-2c(Cl)ccc13 [AZD5991] + Cn1cnc2c(F)c(Nc3ccc(Br)cc3Cl)c(C(=O)NOCCO)cc21 [Selumetinib] (first compound max 1 µM, 7x7, partner max 3 µM) : does combination Emax equal or exceed 0.4?
Data returned: TRUE

Data request: Check the entry CC1(C)CCC(CN2CCN(c3ccc(C(=O)NS(=O)(=O)c4ccc(NCC5CCOCC5)c([N+](=O)[O-])c4)c(Oc4cnc5[nH]ccc5c4)c3)CC2)=C(c2ccc(Cl)cc2)C1 [Venetoclax] + Cn1cnc2c(F)c(Nc3ccc(Br)cc3Cl)c(C(=O)NOCCO)cc21 [Selumetinib] (first compound max 1 µM, 7x7, partner max 3 µM) : does combination Emax equal or exceed 0.4?
Data returned: TRUE

----------
This section presents molecules with their documented combination Emax values.
tested on: BT-549 (Breast Carcinoma); assay: combination Emax (second highest fraction inhibited in the dose matrix, 72 h); higher = more inhibition; extreme values may be limits of the assay
Please give the numeric answer without any surrounding text.

# molecule, combination Emax
data = [
    ("Cc1cc2ncnn2cc1Nc1ncc2c(n1)n(C1CCOCC1)c(=O)n2C [AZD7648] + C=CCn1c(=O)c2cnc(Nc3ccc(N4CCN(C)CC4)cc3)nc2n1-c1cccc(C(C)(C)O)n1 [AZD1775] (first compound max 10 µM, partner max 1 µM)", 0.679),
]

Data request: Please report the recorded combination Emax for CC1(C)CCC(CN2CCN(c3ccc(C(=O)NS(=O)(=O)c4ccc(NCC5CCOCC5)c([N+](=O)[O-])c4)c(Oc4cnc5[nH]ccc5c4)c3)CC2)=C(c2ccc(Cl)cc2)C1 [Venetoclax] + Cn1cnc2c(F)c(Nc3ccc(Br)cc3Cl)c(C(=O)NOCCO)cc21 [Selumetinib] (first compound max 1 µM, 7x7, partner max 3 µM) .
Data returned: 0.106

Data request: Please report the recorded combination Emax for CN(CCO)CC[C@H](CSc1ccccc1)Nc1ccc(S(=O)(=O)NC(=O)c2ccc(N3CCC([C@@H](O)c4ccccc4-c4ccc(Cl)cc4)CC3)cc2)cc1S(=O)(=O)C(F)(F)F [AZD4320] + Cc1cc2ncnn2cc1Nc1ncc2c(n1)n(C1CCOCC1)c(=O)n2C [AZD7648] (first compound max 1 µM, 7x7, partner max 10 µM) .
Data returned: 0.178

----------
tested on: D-263MG (Glioblastoma); assay: Bliss excess, mean over the matrix (fraction); higher = more synergy
This section presents molecules with their documented Bliss excess values.
Please give the numeric answer without any surrounding text.

Answered examples (3):
# molecule, value.observed
data = [
    ("C[C@@H]1COCCN1c1cc(C2([S@](C)(=N)=O)CC2)nc(-c2ccnc3[nH]ccc23)n1 [AZD6738] + Nc1ccn([C@@H]2O[C@H](CO)[C@@H](O)C2(F)F)c(=O)n1 [Gemcitabine] (first compound max 10 µM, 7x7, partner max 0.3 µM)", 0.102),
    ("COc1cc2c(cc1OCCCCCOc1cc3c(cc1OC)C(=O)N1C=C(C)C[C@H]1C=N3)N=C[C@@H]1CC(C)=CN1C2=O [SG3199] + O=C(c1cc(Cc2n[nH]c(=O)c3ccccc23)ccc1F)N1CCN(C(=O)C2CC2)CC1 [Olaparib] (first compound max 0.001 µM, 7x7, partner max 10 µM)", -0.018),
    ("C[C@@H](Oc1cc(-c2cnn(C3CCNCC3)c2)cnc1N)c1c(Cl)ccc(F)c1Cl [Crizotinib] + Cn1cnc2c(F)c(Nc3ccc(Br)cc3Cl)c(C(=O)NOCCO)cc21 [Selumetinib] (first compound max 10 µM, 7x7, partner max 10 µM)", -0.0866),
]

Okay, next one:
Data request: Please report the recorded Bliss excess for C=CCn1c(=O)c2cnc(Nc3ccc(N4CCN(C)CC4)cc3)nc2n1-c1cccc(C(C)(C)O)n1 [AZD1775] + C1CN(CCC1(C(=O)N[C@@H](CCO)C2=CC=C(C=C2)Cl)N)C3=NC=NC4=C3C=CN4 [Capivasertib] (first compound max 3 µM, partner max 3 µM) .
Data returned: -0.0143

----------
This section presents molecules with their documented combination Emax values.
test system: PWR-1E (Non-Cancerous); experiment: combination Emax (second highest fraction inhibited in the dose matrix, 72 h); higher = more inhibition; extreme values may be limits of the assay
Please give the numeric answer without any surrounding text.

# molecule, tested.target, combination Emax
records = [
    ("CC1(C)CCC(CN2CCN(c3ccc(C(=O)NS(=O)(=O)c4ccc(NCC5CCOCC5)c([N+](=O)[O-])c4)c(Oc4cnc5[nH]ccc5c4)c3)CC2)=C(c2ccc(Cl)cc2)C1 [Venetoclax] + C=CCn1c(=O)c2cnc(Nc3ccc(N4CCN(C)CC4)cc3)nc2n1-c1cccc(C(C)(C)O)n1 [AZD1775] (first compound max 1 µM, partner max 1 µM)", "PWR-1E (Non-Cancerous)", 0.548),
    ("COc1nnc2ccc(N3CCC(c4ccc(OCCN5CCN(C)C(=O)[C@H]5C)cc4)CC3)nn12 [AZD5153] + CN(CC[C@H](CSC1=CC=CC=C1)NC2=C(C=C(C=C2)S(=O)(=O)NC(=O)C3=CC=C(C=C3)N4CCC(CC4)[C@H](C5=CC=CC=C5C6=CC=C(C=C6)Cl)O)S(=O)(=O)C(F)(F)F)CCO [AZD4320] (first compound max 1 µM, 7x7, partner max 1 µM)", "PWR-1E (Non-Cancerous)", 0.714),
]

Data request: Please report the recorded combination Emax for C=CCn1c(=O)c2cnc(Nc3ccc(N4CCN(C)CC4)cc3)nc2n1-c1cccc(C(C)(C)O)n1 [AZD1775] + O=C(c1cc(Cc2n[nH]c(=O)c3ccccc23)ccc1F)N1CCN(C(=O)C2CC2)CC1 [Olaparib] (first compound max 1 µM, partner max 10 µM) .
Data returned: 0.562

----------
tested on: NCI-H358 (Lung Adenocarcinoma); assay: Bliss excess, mean over the matrix (fraction); higher = more synergy
measurement.label: Bliss excess
Please give the numeric answer without any surrounding text.

# molecule, tested.target, Bliss excess
data = [
    ("COc1cccc(OCCCN)c1-c1cc(Nc2cnc(C#N)cn2)n[nH]1 [Prexasertib] + O=C(c1cc(Cc2n[nH]c(=O)c3ccccc23)ccc1F)N1CCN(C(=O)C2CC2)CC1 [Olaparib] (first compound max 1 µM, 7x7, partner max 10 µM)", "NCI-H358 (Lung Adenocarcinoma)", -0.0809),
]

Data request: Please report the recorded Bliss excess for CC1(C)CCC(CN2CCN(c3ccc(C(=O)NS(=O)(=O)c4ccc(NCC5CCOCC5)c([N+](=O)[O-])c4)c(Oc4cnc5[nH]ccc5c4)c3)CC2)=C(c2ccc(Cl)cc2)C1 [Venetoclax] + C[C@@H]1COCCN1C2=NC(=NC(=C2)C3(CC3)[S@](=N)(=O)C)C4=C5C=CNC5=NC=C4 [AZD6738] (first compound max 1 µM, 7x7, partner max 10 µM) .
Data returned: -0.0224

Data request: Please report the recorded Bliss excess for CC1(C)CCC(CN2CCN(c3ccc(C(=O)NS(=O)(=O)c4ccc(NCC5CCOCC5)c([N+](=O)[O-])c4)c(Oc4cnc5[nH]ccc5c4)c3)CC2)=C(c2ccc(Cl)cc2)C1 [Venetoclax] + C[C@@H](Nc1cc(F)cc(F)c1)c1cc(C(=O)N(C)C)cc2c(=O)cc(N3CCOCC3)oc12 [AZD8186] (first compound max 1 µM, 7x7, partner max 3 µM) .
Data returned: -0.0521
